test system: BT-549; assay: NCI tumour cell line growth inhibition, 48 h
Active and inactive are the calls of the source. Rule as the data show it: active = GI50 up to about 1.1 µM and inactive = higher. Where a SMILES comes first, the peptide text is derived from it. The star is where a group is joined. Fmoc = O=C(OCC1c2ccccc2-c2ccccc21)*; Boc = CC(C)(C)OC(=O)*
Respond only with the outcome that fits, drawn from YES (active), NO (inactive)

Request: Given COc1cc2c(cc1C)NC(=O)/C2=C/c1cccnc1 , state the outcome it received in this test.
Response: NO

Request: Given Nc1nccc(NCC2(CO)CC(OCc3ccccc3)C2)n1 (configuration not stated) , state the outcome it received in this test.
Response: NO

Request: Given O=C(/C=N/O)Nc1cc(Cl)c(Cl)cc1Cl , state the outcome it received in this test.
Response: NO

Request: Given O=C(c1ccccc1)N1CCN(C(=S)NC2CCCCC2)C1=S , state the outcome it received in this test.
Response: NO

Request: Given C[C@@H](CCO)OC1OC(COC(=O)C(C)(C)C)C(OC(=O)C(C)(C)C)C(OC(=O)C(C)(C)C)C1OC(=O)C(C)(C)C (some centres not stated) , state the outcome it received in this test.
Response: NO

Request: Given O=C(CCCn1ccnc1[N+](=O)[O-])NCCn1ccnc1[N+](=O)[O-] , state the outcome it received in this test.
Response: NO

Request: Given CC1=NCC[N+]1(CCc1ccccc1)Cc1ccccc1 (configuration not stated) , state the outcome it received in this test.
Response: NO

Request: Given O=C(O)c1nc2ccc(C(F)(F)F)cc2nc1Nc1ccc(Cl)c(Cl)c1 , state the outcome it received in this test.
Response: NO

Request: Given O=C(Nc1cccc(-c2cn3ccccc3n2)c1)c1ccncc1 , state the outcome it received in this test.
Response: NO

Request: Given O=C(O)c1nc2ccc(C(F)(F)F)cc2nc1NCc1ccc(Cl)c(Cl)c1 , state the outcome it received in this test.
Response: NO

Request: Given O=Cc1ccc(OCc2cccc(COc3ccc(/C=N\Nc4ccc([N+](=O)[O-])cc4[N+](=O)[O-])cc3)n2)cc1 , state the outcome it received in this test.
Response: NO

Request: Given Cc1ccc2c(c1C)C(=O)C1(C2)Cc2ccc3c(c2C1=O)CCC3 (configuration not stated) , state the outcome it received in this test.
Response: NO

Request: Given CC(C)C1/C(=N/O)CC(c2ccccc2)N(N=O)C1c1ccccc1 (configuration not stated) , state the outcome it received in this test.
Response: NO

Request: Given Cc1ccc(O)c(C(=O)/C=C/c2ccccc2)c1 , state the outcome it received in this test.
Response: NO

Request: Given Cc1c(O)c(=O)ccn1CCc1ccc(O)cc1 , state the outcome it received in this test.
Response: NO

Request: Given CCc1ccc(NCc2cc(OC)c(OC)c(OC)c2)cc1 , state the outcome it received in this test.
Response: YES

Request: Given COc1ccc2c(N=[N+]=[N-])c(-c3ccccc3)c(=O)oc2c1 , state the outcome it received in this test.
Response: NO

Request: Given CS(=O)(=O)Nc1ccc2c(c1)N(S(C)(=O)=O)CC2CCl (configuration not stated) , state the outcome it received in this test.
Response: NO

Request: Given OC(c1ccc(Br)cc1)(c1cccs1)C1CC1 (configuration not stated) , state the outcome it received in this test.
Response: NO

Request: Given CN1C(=O)C(O)C[C@@H]1c1ccccc1 (some centres not stated) , state the outcome it received in this test.
Response: NO

Request: Given CC(C)(C)OC(=O)NCCCCC(NC(=O)C(Cc1c[nH]c2ccccc12)NC(=O)OCC1c2ccccc2-c2ccccc21)C(=O)O (configuration not stated) (Fmoc-Trp-Lys(Boc)-OH; configuration not given here) , state the outcome it received in this test.
Response: NO

Request: Given CC(C)CC(=O)CC(O)C(Cl)(Cl)Cl (configuration not stated) , state the outcome it received in this test.
Response: NO
